B1: Osa-1-4 twister ribozyme (parent)
chain: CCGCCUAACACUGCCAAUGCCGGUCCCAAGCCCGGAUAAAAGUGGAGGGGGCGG

Variants of: B1
measurement.protocol: self-cleavage, relative activity (ratio to wild type); higher = more cleavage; co-transcriptional
measured.parameter: self-cleavage

| mutation.string | reading |
| --- | --- |
| G30C G51C | 0.03 |
| C25G G48A | 0.04 |
| A40C C20A | 0.09 |
| A41G A46G | 0.07 |
| C9U U37C | 0.82 |
| A16U G48C | 0.07 |
| C9U G44U | 0.69 |
| A29G A36C | 0.07 |
| G54C U12A | 0.43 |
| C11A U18G | 0.64 |
| C31A C52U | 0.05 |
| C31A G30A | 0.02 |
| A17C G23A | 0.07 |
| A16G A8U | 0.5 |
| A29U C52G | 0.12 |
| A8C C15A | 0.21 |
| A8C G34A | 0.07 |
| A36C C52A | 0.37 |
| C31G C52A | 0.1 |
| A10U C33G | 0.01 |
| A29C A39U | 0.03 |
| A29G G42C | 0.06 |
